- System: NCI-H292
- method summary: Cytotoxicity against human NCI-H292 cells at 1.25 ug/mL after 72 hrs by MTT assay
- Assay type: functional
- experimental conditions: NCI-H292, 72 h, read-out: GI
reported endpoint: inhibition of growth at 1.25 µg/mL (%)
# value in %; strip the unit string

Some solved entries appear below for comparison.
smiles	system under test	inhibition of growth at 1.25 µg/mL, %
O=C1NC(=S)/C(=C/c2ccccc2F)S1	NCI-H292	4.29
O=C1NC(=S)/C(=C/c2ccccc2Cl)S1	NCI-H292	10.6
O=C1NC(=S)/C(=C/c2ccc(Br)cc2)S1	NCI-H292	1.1
O=C1NC(=S)/C(=C/c2ccc(Cl)cc2)S1	NCI-H292	10
O=C1NC(=S)/C(=C/c2ccc(Cl)c(Cl)c2)S1	NCI-H292	9.18
O=C1NC(=S)/C(=C/c2ccc(F)cc2)S1	NCI-H292	7.32
O=C1NC(=S)/C(=C/c2cccc(Cl)c2)S1	NCI-H292	3.35
O=C1NC(=S)/C(=C/c2cc(Cl)cc(Cl)c2Cl)S1	NCI-H292	14.2
O=C1NC(=S)/C(=C/c2ccc(Cl)cc2Cl)S1	NCI-H292	12.1
O=C1NC(=S)/C(=C/c2c(Cl)cccc2Cl)S1	NCI-H292	4.36

Record "O=C1NC(=S)/C(=C/c2cccc(F)c2)S1" , field inhibition of growth at 1.25 µg/mL: 2.1

The reported value for "O=C1NC(=S)/C(=C/c2cccc(Br)c2)S1" in terms of inhibition of growth at 1.25 µg/mL is 4.67

The value of inhibition of growth at 1.25 µg/mL measured for the molecule "O=C1NC(=S)/C(=C/c2ccccc2Br)S1" turned out to be 13.3

---

- Test system: Staphylococcus aureus
- method summary: Antimicrobial activity against multidrug-resistant Staphylococcus aureus H.C. 20981 isolate after 20 hrs by twofold serial dilution technique
- Format: functional
- experimental conditions: H.C. 20981, 20 h
reported endpoint: MIC (µg/mL)
Enter your answer as a number in µg/mL; do not include the unit.

Below: 5 molecules and their reported MIC.
molecule	MIC (µg/mL)
O=C1NC(=S)/C(=C/c2ccc(Cl)cc2)S1	2
CC1=C(C(=O)O)N2C(=O)[C@@H](NC(=O)[C@H](N)c3ccccc3)[C@H]2SC1 [CEPHALEXIN ANHYDROUS]	8
O=C1NC(=S)/C(=C/c2ccccc2Cl)S1	4
O=C1NC(=S)/C(=C/c2ccc(Cl)c(Cl)c2)S1	2
O=C1NC(=S)/C(=C/c2cccc(Br)c2)S1	16

Turning now to a further record.
Quick note, MIC for "O=C1NC(=S)/C(=C/c2ccc(Br)cc2)S1" landed at 4

---

- Test system: Staphylococcus aureus
- method summary: Antimicrobial activity against multidrug-resistant Staphylococcus aureus H.C. 20981 isolate after 20 hrs by twofold serial dilution technique
- Type: functional
- experimental conditions: H.C. 20981, 20 h
reported endpoint: MIC
State the value, then name its unit.

Example cases with answers are listed next.
smiles	MIC
O=C1NC(=S)/C(=C/c2ccccc2F)S1	4 µg/mL
O=C1NC(=S)/C(=C/c2cc(Cl)cc(Cl)c2Cl)S1	2 µg/mL
O=C1NC(=S)/C(=C/c2cccc(Cl)c2)S1	2 µg/mL

The compound listed as "O=C1NC(=S)/C(=C/c2c(Cl)cccc2Cl)S1" shows MIC equal to 8 µg/mL

---

- System: Staphylococcus aureus
- method summary: Antimicrobial activity against Staphylococcus aureus UFPEDA 01 at 300 ug/disk after 24 hrs by disk diffusion method
- Assay type: functional
- experimental conditions: UFPEDA 01, 24 h, read-out: IZ
The entries below are paired with their reported zone of inhibition at 300 µg/disc.
The figure you give is taken to be in mm; do not add the unit.

Some solved cases for reference:
smiles	meas value
O=C1NC(=S)/C(=C/c2ccc(Br)cc2)S1	23
O=C1NC(=S)/C(=C/c2c(Cl)cccc2Cl)S1	20
O=C1NC(=S)/C(=C/c2ccc(F)cc2)S1	29
O=C1NC(=S)/C(=C/c2ccc(Cl)cc2)S1	27
O=C1NC(=S)/C(=C/c2cccc(F)c2)S1	28
O=C1NC(=S)/C(=C/c2ccccc2Cl)S1	25
O=C1NC(=S)/C(=C/c2cc(Cl)cc(Cl)c2Cl)S1	16
O=C1NC(=S)/C(=C/c2cccc(Cl)c2)S1	31

Consider "O=C1NC(=S)/C(=C/c2ccc(Cl)cc2Cl)S1" . Its measured zone of inhibition at 300 µg/disc is 23

Given item "O=C1NC(=S)CS1" , the value recorded as its zone of inhibition at 300 µg/disc is 19

Memo: "O=C1NC(=S)/C(=C/c2ccccc2Br)S1" , reported zone of inhibition at 300 µg/disc: 25

The measured zone of inhibition at 300 µg/disc associated with "O=C1NC(=S)/C(=C/c2cccc(Br)c2)S1" reads 28

zone of inhibition at 300 µg/disc recorded for this molecule, "O=C1NC(=S)/C(=C/c2ccccc2F)S1" , is 24

zone of inhibition at 300 µg/disc reading for "O=C1NC(=S)/C(=C/c2ccc(Cl)c(Cl)c2)S1" : 25

---

- Test system: NCI-H292
- method summary: Cytotoxicity against human NCI-H292 cells at 5 ug/mL after 72 hrs by MTT assay
- Type: functional
- experimental conditions: NCI-H292, 72 h, read-out: GI
reported endpoint: inhibition of growth at 5 µg/mL (%)
Report only the number, with the unit % understood.

smiles	system under test	reported endpoint	meas value
O=C1NC(=S)/C(=C/c2ccc(F)cc2)S1	NCI-H292	inhibition of growth at 5 µg/mL	31.6
O=C1NC(=S)/C(=C/c2ccc(Cl)cc2)S1	NCI-H292	inhibition of growth at 5 µg/mL	35.8

Notebook: "O=C1NC(=S)/C(=C/c2ccccc2Br)S1" , inhibition of growth at 5 µg/mL read as 22.9

response.value for "O=C1NC(=S)/C(=C/c2c(Cl)cccc2Cl)S1" (field: inhibition of growth at 5 µg/mL) = 10.3

Data point: "O=C1NC(=S)/C(=C/c2cccc(F)c2)S1" ; inhibition of growth at 5 µg/mL = 13.1

// "O=C1NC(=S)/C(=C/c2ccccc2F)S1" : inhibition of growth at 5 µg/mL value = 25.2

Lab note: "O=C1NC(=S)/C(=C/c2cccc(Cl)c2)S1" gave inhibition of growth at 5 µg/mL of 21.6

---

- Tested on: Staphylococcus
- method summary: Antimicrobial activity against coagulase-negative Staphylococcus H.A.M. 338 isolate after 20 hrs by twofold serial dilution technique
- Type: functional
- experimental conditions: H.A.M. 338, 20 h
reported endpoint: MIC (µg/mL)
Answer in µg/mL, number only, no unit symbol.

Examples with their reported MIC follow.
compound	system under test	MIC [µg/mL]
O=C1NC(=S)/C(=C/c2ccccc2F)S1	Staphylococcus	16
O=C1NC(=S)/C(=C/c2ccc(Cl)c(Cl)c2)S1	Staphylococcus	2
O=C1NC(=S)/C(=C/c2cc(Cl)cc(Cl)c2Cl)S1	Staphylococcus	2

Input "O=C1NC(=S)/C(=C/c2cccc(F)c2)S1" . Output MIC: 16

Recorded result, "O=C1NC(=S)/C(=C/c2ccccc2Cl)S1" , MIC: 8

The compound identified as "O=C1NC(=S)/C(=C/c2c(Cl)cccc2Cl)S1" registered its MIC at 4

Reported MIC ( "O=C1NC(=S)/C(=C/c2ccc(Br)cc2)S1" ) = 4

The reported MIC of the compound "O=C1NC(=S)/C(=C/c2ccc(Cl)cc2Cl)S1" was 2

What the record says about "O=C1NC(=S)/C(=C/c2ccc(Cl)cc2)S1" : MIC is 4

For record "O=C1NC(=S)/C(=C/c2cccc(Cl)c2)S1" the listed MIC is 2

Sure, the documented MIC for "O=C1NC(=S)/C(=C/c2ccc(F)cc2)S1" is 32

The recorded MIC for entry "O=C1NC(=S)/C(=C/c2ccccc2Br)S1" equals 16

Per the record, "O=C1NC(=S)CS1" has MIC of 64

Recorded result, "O=C1NC(=S)/C(=C/c2cccc(Br)c2)S1" , MIC: 64

Quick note, MIC for CC1=C(C(=O)O)N2C(=O)[C@@H](NC(=O)[C@H](N)c3ccccc3)[C@H]2SC1 [CEPHALEXIN ANHYDROUS] landed at 128

---

- Tested on: Candida albicans
- method summary: Antimicrobial activity against Candida albicans UFPEDA 1007 after 48 hrs by twofold serial dilution technique
- Assay type: functional
- experimental conditions: UFPEDA 1007, 48 h
We begin with a simple list: items and their reported MIC.
Report only the number, with the unit µg/mL understood.

smiles	system under test	MIC / µg/mL
O=C1NC(=S)/C(=C/c2cccc(Cl)c2)S1	Candida albicans	32
O=C1NC(=S)/C(=C/c2ccc(Cl)c(Cl)c2)S1	Candida albicans	32
O=C1NC(=S)/C(=C/c2c(Cl)cccc2Cl)S1	Candida albicans	32

get_value(item= "O=C1NC(=S)/C(=C/c2ccccc2Br)S1" , readout=MIC) returns 32

Entry under test: "O=C1NC(=S)CS1" . Its MIC was 8

The measured MIC associated with "O=C1NC(=S)/C(=C/c2ccccc2Cl)S1" reads 32

So, "O=C1NC(=S)/C(=C/c2cccc(Br)c2)S1" ? Its MIC was 64

Sure, the documented MIC for "O=C1NC(=S)/C(=C/c2ccc(F)cc2)S1" is 32

Taken from ChEMBL document CHEMBL1158358.
